# Test system: SF-268 CNS
# Method Notes: NCI tumour cell line growth inhibition, 48 h; in the data active means GI50 below about 0.43 µM; inactive means the rest
Answer with one of the outcomes given here: TRUE (active), FALSE (inactive)

Hi team, can someone confirm the assay call for O=C(Nc1cccc(-n2cc(-c3ccncc3)c(-c3cc(O)cc(Cl)c3)n2)c1)c1cc(C(F)(F)F)cc(C(F)(F)F)c1 ?
FALSE

Hi team, can someone confirm the assay call for O=C(CC1(O)C(=O)N(Cc2ccccc2)c2ccccc21)c1ccc(C(=O)NCC2CCC3(CC2)OOC2(CCCCC2)OO3)cc1 (stereo not given) ?
FALSE

Hi team, can someone confirm the assay call for Cc1cc(C#Cc2ccc(C(C)(C)C)cc2)ccc1-n1c(/C=C/c2ccc(O)cc2O)nc2ccccc2c1=O ?
FALSE

Hi team, can someone confirm the assay call for COC1=C(OC)C(=O)C(SC/C=C(\C)CCCC(C)CCCC(C)CCCC(C)C)=CC1=O (stereo not given) ?
FALSE

Hi team, can someone confirm the assay call for Cn1cc(C2=C(c3cccc(OC[C@@H](O)CO)c3)C(=O)NC2=O)c2ccccc21 ?
FALSE

Next:
Hi team, can someone confirm the assay call for COc1cc2c(cc1OC)-c1ncc3c(OC)c(OC)c(OC)cc3c1C2 ?
FALSE

---

# Tested on: BT-549 breast
# Method Notes: NCI tumour cell line growth inhibition, 48 h
Some compounds, each annotated with its measured TGI.
Write down the numeric answer in µM and omit the unit.

Any idea what its TGI is? The compound is O=C(CCCCCCN1CC(=O)N2[C@@H](c3ccc(Cl)c(Cl)c3)c3[nH]c4ccccc4c3C[C@H]2C1=O)NO
14.2

---
Any idea what its TGI is? The compound is O=C1c2sccc2-c2cccc3cccc1c23 (tested in a mixture with another compound)
25.7

---

Some compounds, each annotated with its measured TGI.
# Tested on: DMS 273 small cell lung
# Method Notes: NCI tumour cell line growth inhibition, 48 h

Please tell me: TGI of C[CH2][Sn]([CH2]C)([O]C(=O)c1ccccc1OC)[O][Sn]([CH2]C)([CH2]C)[O]C(=O)c1ccccc1OC , system DMS 273 small cell lung?
> 100 µM

---
Please tell me: TGI of CCCCC1(C)C=C/C(=C2/C(=O)O/C(=C\C(=O)O)C2=O)O1 (stereo not drawn) , system DMS 273 small cell lung?
> 100 µM

Please tell me: TGI of CC12C=CC(=O)C=C1CCC1C3CCC(O)(C(=O)CO)C3(C)CC(O)C12F (stereo not drawn) , system DMS 273 small cell lung?
> 100 µM

---

# Tested on: DU-145 prostate
# Method Notes: NCI tumour cell line growth inhibition, 48 h
Assay Readout: GI50

Here are 3 compounds together with their reported answers.
Any idea what its GI50 is? The compound is CCN(CC)CCCCCCNc1cc(OC)cc2cccnc12
1.8 µM

Any idea what its GI50 is? The compound is O=C(Nc1cccc(-n2cc(-c3ccncc3)c(-c3cc(O)cc(Cl)c3)n2)c1)c1cc(C(F)(F)F)cc(C(F)(F)F)c1
5.19 µM

Any idea what its GI50 is? The compound is N#CC1=C(/N=C/c2ccccc2)Oc2c(ccc3ccccc23)C1c1ccccc1 (centres undefined)
0.735 µM

Then this compound:
Any idea what its GI50 is? The compound is COC(=O)[C@H]1CCCN1C(=O)[C@H]1CCCN1C(=O)[C@@H](Cc1c[nH]c2ccccc12)NC(=S)Nc1cc(C(F)(F)F)cc(C(F)(F)F)c1
2.6 µM
